- TARGET OR TEST SYSTEM: T1, CD27 expressed on the cell surface (HT1080_CD27 cells) (human, UniProt P26842 20-260)
- T1 construct: whole, on cells; also called K562_CD27
- T1 sequence (looked up): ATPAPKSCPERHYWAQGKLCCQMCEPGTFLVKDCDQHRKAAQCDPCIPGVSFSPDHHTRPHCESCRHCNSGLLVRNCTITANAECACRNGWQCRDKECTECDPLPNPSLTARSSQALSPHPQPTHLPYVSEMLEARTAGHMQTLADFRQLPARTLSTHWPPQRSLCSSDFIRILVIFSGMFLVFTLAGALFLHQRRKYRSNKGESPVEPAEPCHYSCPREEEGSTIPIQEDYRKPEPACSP
- METHOD SUMMARY: cellular binding assay, HT1080_CD27 cells; note: test concentration or dose not given here
PROPERTY LABEL: Cellular binding assay [RFU]

## Input Consider the binder shown here: P018.S.01.A.A05 (antibody, V domains shown, V regions on human Ig constant parts; also called AB27_2) VH: QEQLEESGGDRVQPEGSLTLTCTASGFSFSATYWICWVRQAPGKGLEWIACIFGRSSSDTYYASWAKGRFTISKTSSTTVTLQMTSLTAADTATYFCARGDSGHPYYYSFNLWGPGTLVTVSS VL: AYDMTQTPASVEVAVGGTVTIKCQASQSIGGYLAWYQQKPGQPPKLLIYGASTLASGVPSRFRGSGSGTEFTLTISDLDSADAATYYCQCTHGTRSDWAFGGGTEVVVK What is its recorded Cellular binding assay [RFU]?
## Output 300 RFU

## Input Which Cellular binding assay [RFU] value belongs to P018.S.05.A.D04 (antibody, V domains shown, V regions on human Ig constant parts; also called AB27_87) VH: QSLEESGGDLVKPGASLTLTCTASEFDFNNNAMCWVRQAPGKGLEWIACIYIGNGGTWYASWAKGRFTISKSSSTTVTLQVTSLTAADTATYFCARGENIAYFILWGPGTLVTVSS VL: DIVMTQTPASVSAAVGGTVTIKCQASQSINSWLSWYQQKPGQPPKLLIYKASTLASGVPSRFKGSGSGTEFTLTISDLESADAATYYCQGYYYYSSSNYASNAFGGGTEVVVK ?
## Output 317 RFU
